- Assay Info: Toxicity analysis (LD50) in mice
- Study Conditions: mouse, in vivo, intravenous injection
Endpoint Name: LD50

INSERT INTO results (chemical_smiles, measured_value) VALUES
  ('COc1ccc2cc3[n+](cc2c1OC)CCc1cc2c(cc1-3)OCO2', '7.6 to 10.2 mg/kg');

###

- Assay Info: in vivo
- Study Conditions: beagle, dog, iv, 100 mg/kg
Endpoint Name: AUC (ng·h/mL)

INSERT INTO assay_data (chemical_smiles, unit_name, measured_value) VALUES
  ('COc1ccc2cc3[n+](cc2c1OC)CCc1cc2c(cc1-3)OCO2', 'ng·h/mL', 1980);
